# target: GOPC, Q9HD26
# test: holdup assay
# Set-up: key: below the threshold = too weak to quantify, mostly under pKd 3.1 to 4
# measurement conditions: plain residues with an end cap or a label only (N-terminal biotin on a linker: ado-ado)
endpoint: pKd

{"binder": "PDSYHRRDFW [U2AF2, P26368]", "experimental result": 3.6}
{"binder": "RDYTQSSSSL [GRM5, P41594]", "experimental result": 3.55}
{"binder": "PKSNSSKEYV [CLDN7, O95471]", "experimental result": 3.7}
{"binder": "PEKVSNTTVV [IGSF5, Q9NSI5]", "experimental result": 3.61}
{"binder": "HDDYFYHDEL [RCN2, Q14257]", "experimental result": 3.59}
{"binder": "ADEMICITTL [CACNA1D, Q01668]", "experimental result": 4.88}
{"binder": "IGHEDLETAV [DGKI, O75912]", "experimental result": 3.58}
{"binder": "SQDPKKPSRV [CBY2, Q8NA61]", "experimental result": 3.75}
{"binder": "NKSEPFLTWL [WWTR1, Q9GZV5]", "experimental result": 4.16}
{"binder": "AKADAQESRL [PLCB2, Q00722]", "experimental result": 4.1}
{"binder": "YAEKRMLTEV [KCNA6, P17658]", "experimental result": 3.74}
{"binder": "DSEEELPTRL [GRK6, P43250]", "experimental result": 3.83}
{"binder": "KKTPVSRSHL [SLC22A3, O75751]", "experimental result": 3.81}
